B1: ZNF75A (parent)
chain: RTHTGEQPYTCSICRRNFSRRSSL

- Variants of: B1
- Test Summary: protein stability index of a GFP-peptide fusion (GPS, HEK-293T) (PSI 1-6); higher = more stable;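 note: lentivirally expressed fusions sorted by FACS into six bins by GFP to DsRed ratio, PSI derived from sequencing read proportions per bin multiplied by bin number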
- Reported Conditions: c terminus: a fixed tail appended
Known protein stability index of a selection of variants

Some solved cases for reference:
INSERT INTO assay_data (alteration, measured_property, observed_result) VALUES
  ('Y9A', 'protein stability index', 2.68),
  ('Y9I', 'protein stability index', 2.71),
  ('Q7D', 'protein stability index', 3.42),
  ('E6P', 'protein stability index', 2.63),
  ('F18V', 'protein stability index', 2.8);

Ask: I would be grateful if you could share the reported protein stability index for H3C .
Result: 2.85

Ask: I would be grateful if you could share the reported protein stability index for S22M .
Result: 2.25

Ask: I would be grateful if you could share the reported protein stability index for R1Y .
Result: 2.46

Ask: I would be grateful if you could share the reported protein stability index for L24V .
Result: 2.29

Ask: I would be grateful if you could share the reported protein stability index for E6R .
Result: 2.58
